Provide the reported pest or weed control at 1000 g/ha of each item.
System: Lolium perenne (LOLPE)
Assay name: Post-emergence efficacy, glasshouse
Format: in vivo
Assay setup: Lolium perenne, post-emergence, 312 h; Application Rate 1000 g/Ha; evaluated after 13 days; 100=total damage to plant, 0=no damage to plant; read-out: Control of weed species after post-emergence application, LOLPE
Enter your answer as a number in %; do not include the unit.

[Q] Determine reported pest or weed control at 1000 g/ha for "C[n+]1cc(C(=O)[N-]S(=O)(=O)c2ccc(Cl)s2)c2ccccc2n1" ; test system: Lolium perenne (LOLPE).
[A] 0

[Q] Determine reported pest or weed control at 1000 g/ha for Cc1c(C(=O)[O-])c2ccccc2n[n+]1C [Compound A61, 2,3-dimethylcinnolin-2-ium-4-carboxylate] ; test system: Lolium perenne (LOLPE).
[A] 10

[Q] Determine reported pest or weed control at 1000 g/ha for "CCOP(=O)(O)c1c[n+](CCO)nc2ccccc12" ; test system: Lolium perenne (LOLPE).
[A] 40
